The measured values listed here are drawn from paper PMC6332446.

Biological target: mushroom tyrosinase
Assay: Tyrosinase enzyme assay
Type: biochemical
Details: L-Tyrosine substrate; samples screened at 100.00 μg/mL upper limit
MEASURED ENDPOINT: Inhibitory Activities IC50, Tyrosinase

// solved cases for Inhibitory Activities IC50, Tyrosinase follow
- CCCC(=O)c1c(O)cc(O)c(C/C=C(\C)COC(C)=O)c1O: >100.00 µg/mL
- CC(C)=CCOc1cc(O)c(C(=O)C(C)C)c(O)c1: >100.00 µg/mL
- CCC(C)C(=O)c1c(O)cc(OCC=C(C)C)cc1O (centres unmarked): >100.00 µg/mL
- CC(=O)OC/C(C)=C/Cc1c(O)cc(O)c(C(=O)c2ccccc2)c1O: 35.63 ± 4.67 µg/mL

Task: # get_value(readout='Inhibitory Activities IC50, Tyrosinase', item= CC(=O)OC/C(C)=C/Cc1c(O)cc(O)c(C(=O)C(C)C)c1O [Compound 10, caespitate] )
Result: >100.00 µg/mL

Task: Which Inhibitory Activities IC50, Tyrosinase value belongs to CC1(C)CC[C@]2(C)CC=C3[C@](C)(CCC4[C@@]5(C)CC[C@H](O)[C@](C)(CO)C5CC[C@@]34C)C2C1 (stereo partly drawn) [Compound 11, 3β-24-dihydroxyterexer-14-ene] ?
Result: >100.00 µg/mL

Task: // returns reported Inhibitory Activities IC50, Tyrosinase for input CC(C)C(=O)c1c(O)cc(O)c2c1OC(C)(C)[C@@H](O)C2
Result: 80.31 ± 3.31 µg/mL

Task: # Inhibitory Activities IC50, Tyrosinase lookup, item CCC(C)C(=O)c1c(O)cc(O)c(CC=C(C)C)c1O (centres unmarked)
Result: >100.00 µg/mL

====

# IC50 listing for each entry below
Target: elastase from porcine pancrease (Sus scrofa, UniProt P00772)
Construct: from tissue; host or cells: porcine pancreas
Sequence (P00772 27-266): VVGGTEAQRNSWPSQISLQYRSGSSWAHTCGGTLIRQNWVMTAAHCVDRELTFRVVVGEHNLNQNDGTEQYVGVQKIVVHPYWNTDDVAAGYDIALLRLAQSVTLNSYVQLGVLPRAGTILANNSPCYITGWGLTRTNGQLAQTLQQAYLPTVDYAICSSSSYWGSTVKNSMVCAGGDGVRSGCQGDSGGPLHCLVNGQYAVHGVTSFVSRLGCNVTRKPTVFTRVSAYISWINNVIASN
Assay: biochemical
Settings: SANA substrate; samples screened at 100.00 μg/mL upper limit; read-out: Inhibitory Activities IC50, Elastase (converted)
# output: number + unit

* CCC(C)C(=O)c1c(O)cc(O)c(CC=C(C)C)c1O (stereo not drawn) [Compound 7] | 240 µM
* CC(=O)OC/C(C)=C/Cc1c(O)cc(O)c(C(=O)C(C)C)c1O [Compound 10, caespitate] | 182 µM

Proceed to the following item.
Task: Bench note: what IC50 did CCC(C)C(=O)c1c(O)cc(OCC=C(C)C)cc1O (stereo not drawn) [Compound 4] show?
Result: 164 µM

====

Target: mushroom tyrosinase
Assay: Tyrosinase enzyme assay
Type: biochemical
Conditions: L-Tyrosine substrate; samples screened at 100.00 μg/mL upper limit
Measured Inhibitory Activities IC50, Tyrosinase, listed per entry.

Illustrative cases are given below, each with its answer.
- CC(C)=CCc1c(O)cc(O)c(C(=O)C(C)C)c1O: >100.00 µg/mL
- CCCC(=O)c1c(O)cc(O)c(CC=C(C)C)c1O: >100.00 µg/mL

Task: What value of Inhibitory Activities IC50, Tyrosinase has been recorded for this entry: C=C(C)[C@@H](O)Cc1c(O)cc(O)c(C(=O)c2ccccc2)c1O
Result: 26.72 ± 5.05 µg/mL

====

Test system: Rat liver microsomes
Conditions: Fe2+-induced, TBARs, samples screened at 50.00 μg/mL, ± STDEV
MEASURED ENDPOINT: Anti-Lipid peroxidation IC50

* CCC(C)C(=O)c1c(O)cc(O)c(CC=C(C)C)c1O (stereo not shown) | 27.49 ± 3.19 µg/mL
* CC(C)C(=O)c1c(O)cc(O)c2c1OC(C)(C)[C@@H](O)C2 | >50.00 µg/mL
* CC1(C)CC[C@]2(C)CC=C3[C@](C)(CCC4[C@@]5(C)CC[C@H](O)[C@](C)(CO)C5CC[C@@]34C)C2C1 (stereo partly drawn) [Compound 11, 3β-24-dihydroxyterexer-14-ene] | >50.00 µg/mL

Attention now turns to another entry.
Task: GET /values?readout=Anti-Lipid peroxidation IC50&system=Rat liver microsomes&item= CC(=O)OC/C(C)=C/Cc1c(O)cc(O)c(C(=O)c2ccccc2)c1O
Result: 5.12 ± 0.90 µg/mL
